Listing: inhibition of selected molecules
- assay.system: Mitogen-activated protein kinase 12 (Homo sapiens) (UniProt P53778)
- Sequence (P53778 whole entry): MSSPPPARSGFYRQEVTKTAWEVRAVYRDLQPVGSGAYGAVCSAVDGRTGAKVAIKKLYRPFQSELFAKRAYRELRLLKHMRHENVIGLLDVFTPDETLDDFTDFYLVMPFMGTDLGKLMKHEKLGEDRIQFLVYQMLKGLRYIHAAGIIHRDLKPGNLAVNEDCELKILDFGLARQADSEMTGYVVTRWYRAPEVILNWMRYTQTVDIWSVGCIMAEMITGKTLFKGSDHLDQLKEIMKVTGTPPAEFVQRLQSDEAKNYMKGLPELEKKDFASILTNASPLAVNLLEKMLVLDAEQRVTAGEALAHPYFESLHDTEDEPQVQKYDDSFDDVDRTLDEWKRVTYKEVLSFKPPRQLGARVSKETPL
- particulars: at 0.1 µM
- Description: GSK_PKIS: P38gamma mean inhibition at 0.1 uM [Nanosyn]

{"structure": "COc1cccc(-n2cnc3c(N/N=C/c4ccncc4)ncnc32)c1", "inhibition / %": -1.4}
{"structure": "CCc1nccc2c1nc(-c1nonc1N)n2CC", "inhibition / %": -1.3}
{"structure": "COc1ccc2cc(-c3c(-c4ccncc4)nc(-c4ccc(S(C)(=O)=O)cc4C)n3C)ccc2c1", "inhibition / %": 3.44}
{"structure": "CN(C)c1ccc2c(c1)/C(=C/Nc1ccc(S(N)(=O)=O)cc1)C(=O)N2", "inhibition / %": 2.6}
{"structure": "C/C(Nc1ccc(S(N)(=O)=O)cc1)=C1/C(=O)Nc2ccccc21", "inhibition / %": -1.08}
{"structure": "Fc1ccc(-c2nc3n(c2-c2ccncc2)CCS3)cc1", "inhibition / %": 1.62}
{"structure": "NS(=O)(=O)c1ccc(Nc2cc(-c3ccc(O)c(F)c3)n[nH]2)cc1", "inhibition / %": -2.85}
{"structure": "COc1ccc2ncn(-c3cc(O[C@H](C)c4ccccc4Cl)c(C(N)=O)s3)c2c1", "inhibition / %": 3.31}
{"structure": "NCc1ccc(-n2c(-c3nonc3N)nc3cnccc32)cc1", "inhibition / %": 3.52}
{"structure": "COc1cc(C)c(N(C)C(=O)CN(C)C)cc1Nc1nc(Nc2cccc(F)c2C(N)=O)c2cc[nH]c2n1", "inhibition / %": 0.25}
